These entries and their values trace back to ChEMBL document CHEMBL1146013.

biological target: Alpha-1A adrenergic receptor (Homo sapiens)
Sequence (P35348 whole entry): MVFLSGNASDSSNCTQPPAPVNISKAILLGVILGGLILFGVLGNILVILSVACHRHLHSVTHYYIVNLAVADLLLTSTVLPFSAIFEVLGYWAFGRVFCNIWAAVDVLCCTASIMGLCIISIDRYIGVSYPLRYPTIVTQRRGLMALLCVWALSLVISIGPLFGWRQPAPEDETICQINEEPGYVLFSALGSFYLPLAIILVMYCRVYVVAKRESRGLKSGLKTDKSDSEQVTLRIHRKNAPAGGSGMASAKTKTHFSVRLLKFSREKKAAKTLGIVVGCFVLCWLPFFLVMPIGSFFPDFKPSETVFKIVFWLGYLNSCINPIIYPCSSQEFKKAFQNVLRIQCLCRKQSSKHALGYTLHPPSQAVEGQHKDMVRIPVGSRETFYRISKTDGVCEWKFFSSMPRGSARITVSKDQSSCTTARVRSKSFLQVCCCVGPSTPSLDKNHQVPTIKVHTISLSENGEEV
pKi: −log10 of the molar value.
PROPERTY_NAME: pKi

> print(dat)
                                        smi  result.value
1  O=C1/C(=N/c2cccc(C(F)(F)F)c2)c2ccccc2N1c1cccc(OCCN2CCCC2)c1          7.11
